Target: T1, Tetrahymena thermophila MTA1 (TthMTA1), untagged
T1 chain: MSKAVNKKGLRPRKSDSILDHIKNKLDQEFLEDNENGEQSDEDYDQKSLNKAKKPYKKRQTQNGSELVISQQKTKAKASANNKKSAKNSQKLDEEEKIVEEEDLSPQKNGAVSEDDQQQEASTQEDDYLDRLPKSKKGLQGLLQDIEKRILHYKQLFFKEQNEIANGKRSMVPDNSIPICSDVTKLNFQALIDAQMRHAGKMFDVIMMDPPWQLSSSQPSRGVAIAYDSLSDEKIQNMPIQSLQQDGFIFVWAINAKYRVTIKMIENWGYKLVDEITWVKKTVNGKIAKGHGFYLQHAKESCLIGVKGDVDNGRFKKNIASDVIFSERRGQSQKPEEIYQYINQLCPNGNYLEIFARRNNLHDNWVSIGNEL
Test: GST pull-down, gray scanning of bound MTA1 band
Conditions: chain shown with the change;; parent: 100
QUANTITY: percent of parent
# do not omit the unit; it follows the number

Consider His6GST-Tthp2 H39A (protein) MKKNGKSQNQPLDFTQYAKNMRKDLSNQDICLEDGALNASYFLTKKGQYWTPLNQKALQRGIELFGVGNWKEINYDEFSGKANIVELELRTCMILGINDITEYYGKKISEEEQEEIKKSNIAKGKKENKLKDNIYQKLQQMQ . Its measured percent of parent is 0%

// data source = paper PMC9174199
